These entries and their values trace back to the nanobody polyreactivity screen of Harvey et al. (2022).

# procedure.details: yeast display, Sf9 membrane polyspecificity reagent, FACS + sequencing; frameworks hold sequencing errors
outcome.measure: polyreactivity (PSR sort gate)

For reference, reported polyreactivity (PSR sort gate) for QVQHVESGGGLVQAGGSLRLSCSASGRTFSSYVMGWYRQAPGKERELVATITSGGITYYADSVKGRFTISRDNAKNTVYLQMNSLKPEDTAVYYCARAPPGDRFVRYDYWGQGTQVTVSS stands at high polyreactivity

For reference, reported polyreactivity (PSR sort gate) for QVQLVESGGGLVQAGGSLRLSCAASGRTFYRYAMGWYRQAPGKERELVAAISGSGGRTYYADSVKGRFTISRDNAKNTVYFQMNSLKPEDTAVYYCNAYPHAYTGSTREGDYWGQGTQVTVSS stands at high polyreactivity

====

# procedure.details: yeast display, Sf9 membrane polyspecificity reagent, FACS + sequencing; frameworks hold sequencing errors
outcome.measure: polyreactivity (PSR sort gate)

For reference, reported polyreactivity (PSR sort gate) for QVQIVESGGGLVQAGGSLRLSCAAYGSIFQPYAMGWYRQAPGKERELVAAITNGGSTYYADSVKGRFTISRDNAKNTVYLQMNSLKPEDTGVYYCAADVQSSHEYDYWGKGTQVTVSS stands at low polyreactivity

For reference, reported polyreactivity (PSR sort gate) for QVQIVESGGGLVQAGGSLRLSCAASGRIFRSNTMGWYRPAPGKERELVARISKRGGSTNYADSVKGRFTISRDIAKNTVYLQMNRLKPEDTAVYYCAARYYYAGYYVKYYYWGQGTQVTVSS stands at high polyreactivity

For reference, reported polyreactivity (PSR sort gate) for QVQLVESGGGLVQAGGILRLSCAASGSIFNGYAMGWYRQSPGKERELVAAISWNGGSTYYADSVKGRFTISRDNAKNTFYLLMNSLKPEDTAVYYFAAGGYYDSRTYYYWGQGTQVSVSS stands at high polyreactivity

For reference, reported polyreactivity (PSR sort gate) for QLQLVESGGGLVQAGGILRLSCAASGLIFAEYAMGWYRQAPAKERELVARITSGGSTDYADSVKGRFTISRDNAKNTVYLQMNSLKPEDTAVYYCAARYYSQDKNASTASDFDYWGQGTQVTVSS stands at low polyreactivity

For reference, reported polyreactivity (PSR sort gate) for QVELVDSGGGLVQAGGILRLSCPASGSTIPTNVMGWSRQAPGKERECVAAITWSVGSTYYADSVKGRFTISRDNAKNTVYLQMNSLKPEDTAVYYCTADSQVLSAPDDYWGQGTQVTVSS stands at low polyreactivity

Continuing:
For reference, reported polyreactivity (PSR sort gate) for QDQLVESGGGLVQAGGSLRLSCAASGFIFYYNAMAWYRHAPGKERELVAAISYVGGSTYYADSVKGRFTISRDNAKNTVYLQLNSLKPEDTAFYYCAARVYWWIASLAGNYWGQGTQVSVSS stands at low polyreactivity

For reference, reported polyreactivity (PSR sort gate) for QVQLVESGGGLVQAGGSLRLSCASSGLIFQYYVKGWYRQAPGKERELVAAISARGGGTYYADSVKGRFTISRDNAKNTVYLQMISLKPEDTAVYYCAADPVYAGPGYDYWGQGTQVTVSS stands at high polyreactivity

For reference, reported polyreactivity (PSR sort gate) for QVQLVESGGGLVQAGGSLRLSCAASGNTFTFYAMGWYRQAPGKERELVASITGRGGSTYYADSVKGRFTISRDNAKNTVYLQMNSLKPEDTAVYYCNADLPAYGLQGDDYWGQGTQVTVSS stands at low polyreactivity

For reference, reported polyreactivity (PSR sort gate) for QVQLVESGGGLVQAGGSLRLSCAASGSTSSYYAMGWYRQAPGKERELVAAIRTSGRTYYADSVKGRFTISRDNAKNTVYLQMNSLKPEDTAVYYCNAVYVSPDYDSWGQGTQVTVSS stands at high polyreactivity

For reference, reported polyreactivity (PSR sort gate) for QVQLVESGGGLVQAGGSLRLSCAASGGTFWVYAMGWYRQAPGKERELVAAIRWRGGRTYYADSVKGRFTISRDNAKNTVYLQMNSLKPEDTEVYYCAATTWRSGRYNYWGQGTQVTVSS stands at high polyreactivity

====

# procedure.details: yeast display, Sf9 membrane polyspecificity reagent, FACS + sequencing; frameworks hold sequencing errors
outcome.measure: polyreactivity (PSR sort gate)

Some entries whose results are on file:
For reference, reported polyreactivity (PSR sort gate) for QVHLVDSGGGVVVAGGRLRLSCAASVFTFDRNAMGWYRHARGKERALVAAISSSGGRTYYADSVKGRFTISRDNAKNTFYLQMNSLKPEDTAVYYCNAVPSARTQPYNGWGQGSQVTVSS stands at high polyreactivity

For reference, reported polyreactivity (PSR sort gate) for QVQRVESGGGLVQAGGSLRLSGAASGFTFHSYAMGWFRQPPGKERELVAAISTGGTRTYYADSVKGRFTISRDNAKNTVYLQMNSLKPEDTAVYYCAADLSRRVRIYSKYDSWGQGTQVTVSS stands at high polyreactivity

For reference, reported polyreactivity (PSR sort gate) for QVQLVESGGGLVQAGGSLRLSCAASGRIFFANAMGWYRQAPGKERELVAAITSDGSTDYADSVKGRFTISRDNAKNTVYLQMNSLKPEDTAVYYCNADAYYRYGITMDYWGQGTQVTVSS stands at low polyreactivity

For reference, reported polyreactivity (PSR sort gate) for QVQLVESGGGLVQAGGSLRISCAPSGIIFGYNVMGRYRQAPGKERELVAAISGSGASTYYADSVKGRFTISRDNAKNTVYLQMNSLKPEDTAVYYCARYRGYWGRYYGVDYGYWGQGTQVTVSS stands at high polyreactivity

For reference, reported polyreactivity (PSR sort gate) for QVQLVESGGGLVQAGGSLRLSCAASGRIFGVNAMGWYRQAPGKERELVAAINFSGGGTYYADSVKGRFTISRDNAKNTVYLQMTSLKPEDTAVYYCAADGPDYKWYYELDYWGQGTQVTVSS stands at low polyreactivity

Continuing:
For reference, reported polyreactivity (PSR sort gate) for QVQLVESGGGLVQAGGSLRLSCAASGFIFRDNAMGWYRQAPGKERELVASIRSSGGRTYYADSVKGRFTISRDNAKNTVYLQMNSLKPEDTAVYYCARRWYPVTPYARMYYWGQGTQVTVSS stands at low polyreactivity

For reference, reported polyreactivity (PSR sort gate) for QVQLVESGGGLVQAGGSLRLSCAASGRTFYRYAMGWYRQAPGKERELVAVISGRGGGTYYADSVKGRFTISRDNAKNTVYLQMNSLKPEDTAVYYCAKEYWGVTPTYYYWGQGTQVTVSS stands at high polyreactivity

====

# procedure.details: yeast display, Sf9 membrane polyspecificity reagent, FACS + sequencing; frameworks hold sequencing errors
outcome.measure: polyreactivity (PSR sort gate)

Some entries whose results are on file:
For reference, reported polyreactivity (PSR sort gate) for QVQLVESGGGLVQAGGSLRLSCAASGRIFDKYAMGWYRQAPGKERELVAAIDWSGGSTYYADSVKGRFTISRDNAKNTVYLQMNSLKPEDTAVYYCAAYWYYEDGQSEARLYGYDYWGQGTQVTVSS stands at low polyreactivity

For reference, reported polyreactivity (PSR sort gate) for QVQLVESCGGLVQAGGSLRLSCAASGRTFVTYAMGWYRQAPGKERELVAAISKRGSRTYYAYSVKGRFTISRDNAKNTVYLQMNSLKPEDTAVYYCNADPYRTSYDYWGQGTQVTVSS stands at high polyreactivity

For reference, reported polyreactivity (PSR sort gate) for LVQHVESGGGLVKAGGSLRLTCSASGITFARYAMGWYRQAPGNERELVAAISRSVGSTYADSVKGRFTTSRDNAKNTVYLKMNSLKPEDTAVYYCHARYKSRLYPRYDYWGQGTQVTVSS stands at high polyreactivity

For reference, reported polyreactivity (PSR sort gate) for QVQLVESGGGLVQAGGSLRLSCAASGSIFAENAMGCYRQAPGKERELVAAITRSGGSTYYADSVKGRFTISRDNAKNTVYLQMNSLKPEDTAVYYCAAREIASDDWGPDDYWGQGTQVTVSS stands at low polyreactivity

For reference, reported polyreactivity (PSR sort gate) for QVQLVESGGGLVQAGGSLRLSCAASGSILGYYAMGWYRQAPGKERELVAAITWRGGRTYYADSVKGRFTISRDNAMNTVYLQMNSLKPEDTAVYYCAKVPSGYKGYDYWGQGTQVTVSS stands at high polyreactivity

For reference, reported polyreactivity (PSR sort gate) for QVQLVESGGGLVQAGGSLRLSCAASGSIFNLNAMGWYRQAPGKERELVASISSDGSTYYADSVKGRFTISRDNAKNTVYLQMNSLKPEDTAVYYCNADSQWAFKQLSFDYWGQGTQVTVSS stands at low polyreactivity

Next up:
For reference, reported polyreactivity (PSR sort gate) for QVQLVESGGGLVQAGGSLRLSCAASGFIFGANAMGWYRPAPGKESELVAAISWNGGRTYYADSVKWRFTISRDNAKNTVYLQMNSLKPEDTAVSYCAATGWYGLPTSYRVNYWGQGTQVTVSS stands at high polyreactivity
